protocolSummary: NCI Yeast Anticancer Drug Screen. Data for the mlh1 rad18 strain (AID 175)
testContext: S. cerevisiae mlh1 rad18 strain growth inhibition; at 50.0 µM; hits give high values
About 79,000 compounds went through this panel and 15% of them were active in at least one assay; those are over-represented in the sample as a whole.
readoutType: growth inhibition (%)
Write the number in % without appending the unit.

Solved entries:
>  <compound>
CCCCN(CCCC)C(=N)c1cccc(OC)c1

>  <testResult>
-17.9

$$$$
>  <compound>
O=C(O)c1cccc(Sc2ccccc2)c1

>  <testResult>
16.6

$$$$
>  <compound>
CC(C)(C)c1ccc2c(c1)C(C)(C)CCC2(C)C

>  <testResult>
19.2

$$$$
>  <compound>
O=c1[nH]c2cc([N+](=O)[O-])ccc2nc1/C(=N/Nc1ccccc1)C(O)c1ccc(C(O)/C(=N\Nc2ccccc2)c2cnc3cc([N+](=O)[O-])ccc3n2)cc1 (stereo not drawn)

>  <testResult>
-4.3

$$$$
>  <compound>
CC(=O)N(C)c1ccc(NC(=O)Nc2c(C)cccc2C)cc1

>  <testResult>
15.6

$$$$
>  <compound>
Nc1cc(=O)n(C2OC(CO)C(O)C2O)cn1 (stereo not drawn)

>  <testResult>
8.05

$$$$
>  <compound>
COc1cc(C(C#N)NNC(=O)Cc2ccccc2)cc(OC)c1OC (stereo not drawn)

>  <testResult>
-49.8

$$$$
>  <compound>
O=C1C(=Cc2ccccc2)C(=O)c2ccccc21

>  <testResult>
9.3

$$$$

Per the records, this compound ( CC(=O)CC(C)(C)S(=O)(=O)Cc1ccccc1 ) has growth inhibition equal to 6.3

Per the records, this compound ( NC(=O)C1=CC2C3C=CC2(O)C(=O)OC3O1 (stereo not drawn) ) has growth inhibition equal to -11.1

Per the records, this compound ( CCCCCCCC[N+](C)([O-])CCCCCC[N+](C)([O-])CCCCCCCC (stereo not drawn) ) has growth inhibition equal to 76.2

Hello, the source for this data is PubChem BioAssay (NCI), in case you need it.
